# Target Desc: human LXRβ (Homo sapiens)
# Test Description: Assay for Transcriptional Activity of LXRβ (GAL4-hLXRβ LBD luciferase reporter, transient transfection)
# Test Settings: increase of transcriptional activity of LXRβ; HEK293 cells transfected with pFA-hLXRβ/GAL4 and pUAS; 24 hours; average of three independent tests
pEC50: −log10 of the molar value.
Readout Label: pEC50

Compound	Target Desc	pEC50
CS(=O)(=O)N1CC=C(c2cccc(N3N=C(C(O)(C(F)(F)F)C(F)(F)F)CC3c3ccccc3Cl)c2)CC1 (stereo not shown)	human LXRβ (Homo sapiens)	6.03
CS(=O)(=O)Nc1cccc(-c2ccc(C3CC(C(O)(C(F)(F)F)C(F)(F)F)=NN3c3ccccc3Cl)cc2)c1 (stereo not shown)	human LXRβ (Homo sapiens)	5.94

A: OC(C1=NN(c2ccccc2Cl)C(c2ccc(-c3cccnc3F)cc2)C1)(C(F)(F)F)C(F)(F)F (stereo not shown)
B: CCS(=O)(=O)N1CC=C(c2ccc(C3CC(C(O)(C(F)(F)F)C(F)(F)F)=NN3c3ccccc3Cl)cc2)CC1 (stereo not shown)
Ask: Would you kindly point out which of A and B has the smaller pEC50 figure? Let me know the label of the one you choose.
Reply: A
(A: 6.16, B: 6.50)

----------
# Target Desc: human LXRβ (Homo sapiens, UniProt P55055)
# Sequence (P55055 222-460 limits assumed): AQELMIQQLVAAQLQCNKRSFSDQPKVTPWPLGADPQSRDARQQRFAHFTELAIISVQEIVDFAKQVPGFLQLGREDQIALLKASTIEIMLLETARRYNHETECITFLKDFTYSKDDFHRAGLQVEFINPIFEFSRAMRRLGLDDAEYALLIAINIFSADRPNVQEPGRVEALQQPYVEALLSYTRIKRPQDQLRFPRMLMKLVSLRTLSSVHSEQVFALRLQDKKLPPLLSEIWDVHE
# Test Description: Assay for Transcriptional Activity of LXRβ (GAL4-hLXRβ LBD luciferase reporter, transient transfection)
# Test Settings: increase of transcriptional activity of LXRβ; HEK293 cells transfected with pFA-hLXRβ/GAL4 and pUAS; 24 hours; average of three independent tests
Readout Label: EC50 (nM)

Molecule	Target Desc	Result Value
CC(C)S(=O)(=O)N1CC=C(c2ccc(C3CC(C(O)(C(F)(F)F)C(F)(F)F)=NN3c3ccccc3Cl)cc2)CC1 (stereo not shown) [Example 301]	human LXRβ (Homo sapiens, UniProt P55055)	479
CC(C)(C)OC(=O)N1CC=C(c2ccc(C3CC(C(O)(C(F)(F)F)C(F)(F)F)=NN3c3ccccc3Cl)c(F)c2)CC1 (stereo not shown) [Example 342]	human LXRβ (Homo sapiens, UniProt P55055)	4070
CSc1ccc(-c2ccc(F)c(C3CC(C(F)(F)C(F)(F)F)=NN3c3ccc(F)cc3F)c2)cn1 (stereo not shown) [Example 140]	human LXRβ (Homo sapiens, UniProt P55055)	1770
C[S+]([O-])c1cccc(-c2ccc(C3CC(C(O)(C(F)(F)F)C(F)(F)F)=NN3c3ccccc3Cl)c(F)c2)c1 (stereo not shown) [Example 345]	human LXRβ (Homo sapiens, UniProt P55055)	71
CS(=O)(=O)N1CC=C(c2ccc(C3CC(C(O)(C(F)(F)F)C(F)(F)F)=NN3c3ccccc3Cl)cc2)CC1 (stereo not shown) [Example 298]	human LXRβ (Homo sapiens, UniProt P55055)	304

P: CN(C)S(=O)(=O)N1CCN(c2ccc(C3CC(C(O)(C(F)(F)F)C(F)(F)F)=NN3c3ccccc3Cl)cc2)CC1 (stereo not shown) [Example 316]
Q: N#Cc1ncccc1-c1ccc(C2CC(C(O)(C(F)(F)F)C(F)(F)F)=NN2c2ccc(F)cc2F)cc1 (stereo not shown) [Example 380]
Ask: Between P and Q , which one shows the larger EC50 value? Let me know the label of the one you choose.
Reply: P

All figures here come from patent US9376420B2.
